Origin of the recorded values: patent US20260184782A1

Molecular target: T1, recombinant human TIGIT (human, UniProt Q495A1 22-141, limits assumed)
T1 construct: recombinant human TIGIT used in Carterra SPR; also called hTIGIT
T1 sequence (looked up): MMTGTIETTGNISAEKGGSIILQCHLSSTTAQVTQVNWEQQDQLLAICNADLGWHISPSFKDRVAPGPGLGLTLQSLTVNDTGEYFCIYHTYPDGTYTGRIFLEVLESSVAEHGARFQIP
Assay: SPR Carterra, average
Experimental: Binding affinities of VHH-Fc proteins to recombinant human TIGIT were measured by SPR using a Carterra instrument (Table 10A). […] Average values reported from measurements from 1-2 samples.
Property Name: kon (M⁻¹ s⁻¹)
# value in M⁻¹ s⁻¹; strip the unit string

Task: Which kon value belongs to TIGIT-SC38 (Fc fusion, VHH-Fc fusion in assay) VHH: EVQLVESGGGLVQPGGSLRLSCAASGFTFSEYPMGWFRQAPGKEREFVAVVNWNGDSTYYADSVKGRFTISADNSKNTAYLQMNSLKPEDTAVYYCARGSDWYRYWGQGTLVTVSS ?
Result: 469000

Task: Endpoint output: kon of TIGIT-SC125 (Fc fusion, VHH-Fc fusion in assay) VHH: EVQLVESGGGLVQPGGSLRLSCAASGFTLSGNWMGWFRQAPGKEREMVAAIDWSGGSALYADSVKGRFTISADNSKNTAYLQMNSLKPEDTAVYYCAKDALSNSARFDHWGQGTLVTVSS . Value?
Result: 142000
